test system: Aβ42 (Homo sapiens, UniProt P05067)
Sequence (P05067 672-713): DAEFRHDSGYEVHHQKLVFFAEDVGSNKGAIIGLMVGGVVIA
protocol text: Th-T (thioflavin-T) assay of Aβ42 aggregation
Type: biochemical
applied conditions: measurement M6; source data, Ab alone and No Ab as controls
value type: Th-T assay plate reading, mean of three wells (Supplementary Fig. 47)
Note: the reply should be a number with no unit written.

# compound C=C1CCC2C(C)(CC(=O)C=C(C)C)C(O)CCC2(C)C1Cc1c(OC)oc(C)c(C)c1=O (stereo not shown) ; its Th-T assay plate reading, mean of three wells (Supplementary Fig. 47) = 0.436

Summary for this compound, C=C1CCC2C(C)(CCC=C(C)C)C(=O)CCC2(C)C1Cc1c(O)c(C)c(C)oc1=O (stereo not shown) : Th-T assay plate reading, mean of three wells (Supplementary Fig. 47) is 0.3294

For this compound ( C=C1CCC2C(C)(CCC=C(C)C)C(O)CCC2(C)C1Cc1c(O)c(C)c(C)oc1=O (stereo not shown) [Compound 4] ), measured Th-T assay plate reading, mean of three wells (Supplementary Fig. 47) is 0.5438

Looking up `C=C1CC[C@H]2[C@]3(C)C[C@@H](C=C(C)C)O[C@H]3CC[C@]2(C)[C@@H]1Cc1c(O)c(C)c(C)oc1=O` , I found its Th-T assay plate reading, mean of three wells (Supplementary Fig. 47) recorded as 0.5173

For record C=C1CCC2C(C)(CCC=C(C)C)C(O)CCC2(C)C1Cc1c(OC)oc(C)c(C)c1=O (stereo not shown) [Compound 15, viridoxin A hydrolysate] the listed Th-T assay plate reading, mean of three wells (Supplementary Fig. 47) is 0.2264

// Th-T assay plate reading, mean of three wells (Supplementary Fig. 47) lookup, compound = C=C1CCC2C3(C)CC(C=C(C)C)OC3CCC2(C)C1Cc1c(OC)oc(C)c(C)c1=O (stereo not shown) , result: 0.2919

Data point: `C=C1CC[C@@H]2[C@](C)(CC[C@H]3O[C@H](C=C(C)C)C[C@@]23C)[C@@H]1Cc1c(OC)oc(CO)c(C(=O)OC)c1=O` ; Th-T assay plate reading, mean of three wells (Supplementary Fig. 47) = 0.2062
